- Measurement target: C-type lectin domain family 4 member E (Mus musculus) (UniProt Q9R0Q8)
- Sequence (Q9R0Q8 whole entry, the tested form may be a part): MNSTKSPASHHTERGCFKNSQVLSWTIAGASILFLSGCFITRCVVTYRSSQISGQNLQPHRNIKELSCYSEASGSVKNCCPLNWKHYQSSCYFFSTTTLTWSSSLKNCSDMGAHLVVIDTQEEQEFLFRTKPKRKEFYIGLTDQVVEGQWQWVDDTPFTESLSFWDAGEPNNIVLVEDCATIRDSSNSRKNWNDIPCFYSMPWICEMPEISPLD
- Assay summary: Agonist activity at mincle in wild type C57BL/6 mouse GM-CSF derived BMDM assessed as increase in IL-6 release at 0.1 to 1 nmol after 24 hrs by sandwich ELISA
Activity calls are given as the source filed them. No cut-off for these calls is given here.
Labels: true (active), false (inactive)

- CCCCCCCOc1ccc(C(=O)OC[C@H]2O[C@H](O[C@H]3O[C@H](COC(=O)c4ccc(OCCCCCCC)cc4O)[C@@H](O)[C@H](O)[C@H]3O)[C@H](O)[C@@H](O)[C@@H]2O)c(O)c1: true
- CCCCCCCCCCCCCCCCCCCCCC(=O)OC[C@H]1O[C@H](O[C@H]2O[C@H](COC(=O)CCCCCCCCCCCCCCCCCCCCC)[C@@H](O)[C@H](O)[C@H]2O)[C@H](O)[C@@H](O)[C@@H]1O: true
- O=C(OC[C@H]1O[C@H](O[C@H]2O[C@H](COC(=O)c3ccc(O)cc3O)[C@@H](O)[C@H](O)[C@H]2O)[C@H](O)[C@@H](O)[C@@H]1O)c1ccc(O)cc1O: false
- CCCCCCCCCCCCCCCCCCCCCCCCCC(O)C(CCCCCCCCCCC1CC1CCCCCCCCCCCCCCCCCC)C(=O)OC[C@H]1O[C@H](O[C@H]2O[C@H](COC(=O)C(CCCCCCCCCCCCCCCCCCCCCCCC)C(O)CCCCCCCCCCCC3CC3CCCCCCCCCCCCCCCCCC)[C@@H](O)[C@H](O)[C@H]2O)[C@H](O)[C@@H](O)[C@@H]1O (stereo partly specified): true
- CCCCCCCCCCCCCCCCCCOc1ccc(C(=O)OC[C@H]2O[C@H](O[C@H]3O[C@H](COC(=O)c4ccc(OCCCCCCCCCCCCCCCCCC)cc4O)[C@@H](O)[C@H](O)[C@H]3O)[C@H](O)[C@@H](O)[C@@H]2O)c(O)c1: true
- CCCCCCCOc1ccc(C(=O)OC[C@H]2O[C@H](O[C@H]3O[C@H](COC(=O)c4ccc(OCCCCCCC)cc4)[C@@H](O)[C@H](O)[C@H]3O)[C@H](O)[C@@H](O)[C@@H]2O)cc1: true
